Reference for the values: PubChem BioAssay (NCI)

Overview of recorded TGI for various compounds
System: UACC-62 melanoma
protocol.description: NCI tumour cell line growth inhibition, 48 h
measured.endpoint: TGI

                                   compound  measured_endpoint  meas_value
0             COc1nc(N(C)C)nc2c1n(C)c[n+]2C                TGI    > 100 µM
1  O=C(c1ccccc1)C1CCCCN1C(=O)c1ccccc1 (stereo not drawn)                TGI    > 100 µM
2  O=CC(O)C(O)C(O)C(O)C(=O)NCCCCCCCCCCCCNC(=O)C(O)C(O)C(O)C(O)C=O (stereo not drawn)                TGI    > 100 µM
